# experimentDescription: Pharmacokinetics of aconitine in plasma after oral administration
# Format: in vivo
# protocolConditions: male, Sprague-Dawley, rat, 1 mg/kg, t1/2z, Group B: aconitine at 1 mg/kg + liquiritin at 10 mg/kg oral
observable: half-life (h)
Write the answer as a number in h, unit excluded.

What value of half-life has been reported for the following compound? CCN1C[C@]2(COC)[C@H](O)C[C@H](OC)[C@@]34[C@@H]5C[C@@]6(O)[C@H](OC(=O)c7ccccc7)[C@@H]5[C@@](OC(C)=O)([C@@H]([C@H](OC)[C@H]23)[C@@H]14)[C@@H](O)[C@@H]6OC
3.26

----------
# experimentDescription: Pharmacokinetics of aconitine in plasma after oral administration
# Format: in vivo
# protocolConditions: male, Sprague-Dawley, rat, 1 mg/kg, AUC(0-∞)
observable: AUC(0-inf) (µg·h/mL)
Write the answer as a number in µg·h/mL, unit excluded.

What value of AUC(0-inf) has been reported for the following compound? CCN1C[C@]2(COC)[C@H](O)C[C@H](OC)[C@@]34[C@@H]5C[C@@]6(O)[C@H](OC(=O)c7ccccc7)[C@@H]5[C@@](OC(C)=O)([C@@H]([C@H](OC)[C@H]23)[C@@H]14)[C@@H](O)[C@@H]6OC
0.0345

----------
# experimentDescription: Pharmacokinetics of aconitine in plasma after oral administration
# Format: in vivo
# protocolConditions: male, Sprague-Dawley, rat, 1 mg/kg, Tmax, Group E: aconitine at 1 mg/kg + glycyrrhetinic acid at 10 mg/kg oral
observable: Tmax (min)
Write the answer as a number in min, unit excluded.

What value of Tmax has been reported for the following compound? CCN1C[C@]2(COC)[C@H](O)C[C@H](OC)[C@@]34[C@@H]5C[C@@]6(O)[C@H](OC(=O)c7ccccc7)[C@@H]5[C@@](OC(C)=O)([C@@H]([C@H](OC)[C@H]23)[C@@H]14)[C@@H](O)[C@@H]6OC [Aconitine, aconitine]
50

----------
# experimentDescription: Pharmacokinetics of aconitine in plasma after oral administration
# Format: in vivo
# protocolConditions: male, Sprague-Dawley, rat, 1 mg/kg, Cmax
observable: Cmax (ng/mL)
Write the answer as a number in ng/mL, unit excluded.

What value of Cmax has been reported for the following molecule? CCN1C[C@]2(COC)[C@H](O)C[C@H](OC)[C@@]34[C@@H]5C[C@@]6(O)[C@H](OC(=O)c7ccccc7)[C@@H]5[C@@](OC(C)=O)([C@@H]([C@H](OC)[C@H]23)[C@@H]14)[C@@H](O)[C@@H]6OC
9.19
